Where do the numbers come from? From PubChem BioAssay.

target: Luciferin 4-monooxygenase (Photinus pyralis) (UniProt P08659); experiment: inhibition of purified Photinus pyralis luciferase – biochemical, luminescence, purified enzyme, 2006 set, primary screen (AID 1141); conditions: purified firefly luciferase, SteadyGlo luminescence, 30 min; higher = more signal, called active from +8 up or from −8 down;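 note: cell-free assay with purified firefly luciferase at 100 ng per well in PBS; test concentration not given here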
Sequence (P08659 whole entry, looked up): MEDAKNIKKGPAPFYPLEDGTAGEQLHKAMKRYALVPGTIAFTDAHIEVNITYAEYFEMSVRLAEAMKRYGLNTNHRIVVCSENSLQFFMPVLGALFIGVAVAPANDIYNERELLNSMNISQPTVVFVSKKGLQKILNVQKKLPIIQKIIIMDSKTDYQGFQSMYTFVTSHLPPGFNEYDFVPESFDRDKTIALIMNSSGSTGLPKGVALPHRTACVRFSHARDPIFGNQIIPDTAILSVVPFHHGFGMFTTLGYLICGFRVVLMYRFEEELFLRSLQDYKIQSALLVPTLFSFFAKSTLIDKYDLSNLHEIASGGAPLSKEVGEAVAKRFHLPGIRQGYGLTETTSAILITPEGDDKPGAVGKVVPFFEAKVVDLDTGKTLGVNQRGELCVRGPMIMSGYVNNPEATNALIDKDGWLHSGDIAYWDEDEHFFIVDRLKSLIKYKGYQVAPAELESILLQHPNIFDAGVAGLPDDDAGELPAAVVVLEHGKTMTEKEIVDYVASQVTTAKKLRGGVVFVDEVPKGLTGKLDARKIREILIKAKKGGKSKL
I would appreciate it if you labelled entries True when z-score is 0.2 or higher, otherwise False.

Exercise: Answer whether z-score of Cn1c2c(c3ccccc31)C(=O)C1NC2C=CC1(C)C(=O)OCc1ccccc1 (stereo not given) is greater than or equal to 0.2.
Key: True

Exercise: Answer whether z-score of `C=C(C(=O)CC[C@H](OC(=O)c1cccnc1)c1ccccc1OCCO)C(C)C` is greater than or equal to 0.2.
Key: False

Exercise: Answer whether z-score of `[N-]=[N+]=NCc1ccccc1C[C@@]1(C(=O)NCc2ccccc2)N=C(c2ccc(OCCCO)cc2)O[C@@H]1c1ccccc1CN=[N+]=[N-]` is greater than or equal to 0.2.
Key: False

Exercise: Answer whether z-score of `Cc1ccc(S[C@]2(C(=O)NCCN3CCOCC3)CC(=O)N(C3CCCCC3)[C@@H]2c2ccc(CO)cc2)cc1` is greater than or equal to 0.2.
Key: False

Exercise: Answer whether z-score of `NC(=O)NCC#Cc1ccc2c(c1)[C@]1(C(=O)N2)[C@H](c2ccccc2OCCO)N2[C@H](c3ccccc3)[C@H](c3ccccc3)OC(=O)[C@H]2[C@@H]1C(=O)N1CCCCCCC1` is greater than or equal to 0.2.
Key: False

====

test system: Sam68 (KHDRBS1); test: compounds binding KHDRBS1 protein – biochemical, small-molecule microarray, 635 nm fluorescence, primary screen (AID 1125); details: higher = more signal;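 note: score merges 667 nm channel intensity with signal to noise over triplicate slides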
I would appreciate it if you labelled entries met when composite z-score is 1 or higher, otherwise not met.

C=C(C(=O)CC[C@H](OC(=O)c1cccnc1)c1ccccc1OCCO)C(C)C | not met
C=CC[C@@]1(C(=O)NCCN2CCOCC2)N=C(c2ccc(OCCCO)cc2)O[C@@H]1c1ccccc1CN=[N+]=[N-] | met
COCCn1c(C(=O)N(C)C)cc2c1C[C@H]1CN(C(=O)c3ccccc3)[C@@](Cc3ccc(F)cc3)(C(=O)OC)[C@@H]21 | not met
CCOC(=O)C1=CC[C@@H](c2cccc(Cl)c2)N(S(=O)(=O)c2ccc(C)cc2)[C@H]1c1ccc(C#N)cc1 | met
COC(=O)c1nc2oc1CC[C@@H](CO)NC(=O)N(C)Cc1cn(nn1)C[C@H](Cc1ccccc1)NC2=O | not met

Exercise: Answer whether composite z-score of `CO[C@H]1O[C@H](CO)[C@@H](OC(=O)Nc2ccc3c(c2)OCO3)[C@H](OC(=O)Nc2ccc3c(c2)OCO3)[C@H]1OC(=O)Nc1ccc2c(c1)OCO2` is greater than or equal to 1.
Key: met

Exercise: Answer whether composite z-score of `O=C(NCC(F)(F)F)[C@@H]1c2ccccc2C(=O)N(Cc2ccccc2)[C@H]1c1ccc(CO)cc1` is greater than or equal to 1.
Key: not met

Exercise: Answer whether composite z-score of `[N-]=[N+]=NCc1ccccc1C[C@]1(C(=O)NCCN2CCOCC2)N=C(c2ccc(OCCCO)cc2)O[C@H]1c1ccccc1CN=[N+]=[N-]` is greater than or equal to 1.
Key: met

Exercise: Answer whether composite z-score of `C=C(CCCC)/C(=C/C[C@H](OC(C)=O)c1ccc(CO)o1)c1cc(C(=O)OC)ccc1OC` is greater than or equal to 1.
Key: met

Exercise: Answer whether composite z-score of `COc1ccc([Si](C)(C)[C@H]2[C@H](CC(=O)N3Cc4ccccc4C[C@H]3CO)O[C@@]3(C(=O)N(Cc4cccc(I)c4)c4ccccc43)[C@@H]2C)cc1` is greater than or equal to 1.
Key: not met

Exercise: Answer whether composite z-score of `C=C(C(=O)CC[C@@H](OC(=O)c1cccnc1)c1ccc(CO)o1)C(C)C` is greater than or equal to 1.
Key: met

Exercise: Answer whether composite z-score of [N-]=[N+]=NCc1ccccc1C[C@]1(C(=O)NCC(O)CO)COC(c2ccc(OCCCO)cc2)=N1 (stereo not given in full) is greater than or equal to 1.
Key: met

Exercise: Answer whether composite z-score of `C=C(C(=O)CC[C@@H](OC(=O)c1cccnc1)c1ccc(OCCO)cc1)C(C)C` is greater than or equal to 1.
Key: not met

Exercise: Answer whether composite z-score of `[N-]=[N+]=NCc1ccccc1[C@H]1OC(c2ccc(OCCCO)cc2)=N[C@@]1(Cc1ccccc1)C(=O)O` is greater than or equal to 1.
Key: met

====

tested on: Plasmodium falciparum Sir2 (PF13_0152, Sir2A); assay: Plasmodium falciparum Sir2A binding compounds – biochemical, small-molecule microarray, 635 nm fluorescence, primary screen (AID 1098); details: fluorescence 635 nm, higher = more signal;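 note: score merges spot fluorescence intensity with its signal-to-noise ratio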
Below is a list of entries, each paired with its recorded composite z-score value.
Field format: numeric only.

O=C1OCCC/C=C\[C@H]2OC34C=CCN(Cn5nnc6ccccc65)C(=O)[C@H]3N(CCCO)C(=O)[C@@H]4C12 (some centres undefined) | 0.649
O=C1C2C=CC(C(O)c3cccc4ccccc34)N(n3cnnc3)C2C(=O)N1Cc1ccccc1 (centres undefined) | 0.161
CCOC(=O)C1=CC[C@@H](c2cccc(Cl)c2)N(S(=O)(=O)c2ccc(C)cc2)[C@H]1c1ccc(C#N)cc1 | 1.06

Please look at the following compound next.
Measured composite z-score, `C[N+](C)(C)CCCCNC(=O)[C@H]1C[C@H]2C(=O)N3CCC[C@H]3C(=O)N2[C@H]1c1ccc(O)cc1` : 1.48

====

target: Torsin-1A (Homo sapiens) (UniProt O14656); test: TOR1A wild-type binding on microarray – cell lysate, small-molecule microarray, lysate, 635/667 nm, primary screen (AID 1149); details: COS7 hTOR1A-WT lysate, 635 nm fluorescence, higher = more signal
Sequence (O14656 whole entry, looked up): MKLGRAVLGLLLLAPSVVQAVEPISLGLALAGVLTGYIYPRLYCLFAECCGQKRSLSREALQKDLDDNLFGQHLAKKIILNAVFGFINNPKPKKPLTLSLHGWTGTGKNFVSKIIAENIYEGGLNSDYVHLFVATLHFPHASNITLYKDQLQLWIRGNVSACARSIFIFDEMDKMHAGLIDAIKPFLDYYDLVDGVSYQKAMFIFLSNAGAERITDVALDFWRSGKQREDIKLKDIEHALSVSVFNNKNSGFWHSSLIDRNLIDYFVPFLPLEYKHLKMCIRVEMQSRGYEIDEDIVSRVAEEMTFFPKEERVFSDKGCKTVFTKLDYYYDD
Below is a list of entries, each paired with its recorded composite z-score value.
Field format: numeric only.

// solved cases for composite z-score follow
C=C(/C(=C/C[C@@H](OC(C)=O)c1ccc(CO)o1)c1cnc2ccccc2c1)C(C)C | 2.14
C=C(C)[C@@H]1CC=C(C(O)C2C=CC3C(=O)N(Cc4ccccc4)C(=O)C3N2n2cnnc2)CC1 (stereo partly specified) | 0.0146
COC(=O)c1c(CC[C@@H](CO)NC(=O)Nc2ncn[nH]2)oc(C(=O)Cc2ccccc2)c1C(=O)OC | 1.49

Measured composite z-score, `O=[N+]([O-])c1ccc(C[n+]2ccc(CCCO)cc2)o1` : 0.153

Measured composite z-score, `C[C@]1(C(=O)NCC(F)(F)F)c2ccccc2C(=O)N(Cc2cc(F)cc(C(F)(F)F)c2)[C@H]1c1ccc(CO)cc1` : 0.135

====

target: Homeobox protein Hox-A13 (Mus musculus); assay: disruptors of Hoxa13 oligonucleotide interaction – biochemical, fluorescence polarization, labeled oligonucleotide, primary screen (AID 1185); details: Hoxa13:DNA binding, 15 min, higher = more signal, called active from +8 up or from −8 down
Lab note: class by z-score, see low-valued = under -3, mid-valued = from -3 up to -2, high-valued = -2 and over

CCCC[C@H]1C[C@@H]1[C@@H]1N(P(=O)(c2ccccc2)c2ccccc2)[C@](CO)(c2ccccc2)CC12CC2 | mid-valued
[N-]=[N+]=NCc1ccccc1C[C@@]1(C(=O)NCc2ccccc2)N=C(c2ccc(OCCCO)cc2)O[C@@H]1c1ccccc1CN=[N+]=[N-] | high-valued

Exercise: Please classify: `CO[C@H]1O[C@H](CO)[C@@H](OC(=O)Nc2cccc(F)c2)[C@H](OC(=O)Nc2ccccc2-c2ccccc2)[C@@H]1OC(=O)Nc1ccccc1-c1ccccc1`
Key: high-valued

Exercise: Please classify: `O=C1[C@H]2C=C(Br)[C@H](C[C@@H]2OCCOCCO)[C@@]12CO2`
Key: high-valued

Exercise: Please classify: `Cc1ccc(S[C@]2(C(=O)NCc3ccccc3)CC(=O)N(Cc3cc(C(F)(F)F)cc(C(F)(F)F)c3)[C@@H]2c2ccc(CO)cc2)cc1`
Key: mid-valued

====

molecular target: Torsin-1A (Homo sapiens) (UniProt O14656); test: torsin A mutant lysate binding on microarrays – cell lysate, small-molecule microarray, COS7 lysate, 635/667 nm fluorescence, primary screen (AID 1150); settings: COS7 hTOR1A mutant lysate, 635 nm fluorescence, higher = more signal;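 note: score pools 667 nm emission and signal to noise measuring lysate protein binding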
Lab note: class by composite z-score, see lower level: < 0.4; middle level: ≥ 0.4 and < 1; upper level: ≥ 1

Look over these answered cases.
C[C@]1(C(=O)NCC(F)(F)F)c2ccccc2C(=O)N(Cc2cc(F)cc(C(F)(F)F)c2)[C@H]1c1ccc(CO)cc1 | middle level
O=C1NC(=O)C2C1C=CC(C(O)c1cccs1)N2Nc1ccccn1 (stereo not given) | lower level
COC(=O)C(CC#Cc1ccc2c(c1)[C@]1(C(=O)N2)[C@H](C(=O)N2CCCCCCC2)[C@H]2C(=O)O[C@H](c3ccccc3)[C@H](c3ccccc3)N2[C@@H]1c1ccccc1OCCO)C(=O)OC | upper level
COCCOC(=O)N1C(=O)[C@@]2(c3ccccc31)[C@H](c1ccc(O)cc1)N1[C@H](c3ccccc3)[C@H](c3ccccc3)OC(=O)[C@H]1[C@@H]2C(N)=O | middle level
CN(C)CCCCCCNC(=O)[C@@H]1C[C@@H]2C(=O)NCC(=O)N2[C@@H]1c1cccc(OCCO)c1 | upper level

Exercise: Please classify: `COCCOC(=O)N1C(=O)[C@@]2(c3cc(C#CCC(C(=O)OC)C(=O)OC)ccc31)[C@H](c1ccc(OCCO)cc1)N1[C@H](c3ccccc3)[C@H](c3ccccc3)OC(=O)[C@H]1[C@@H]2C(=O)NC[C@H](O)c1ccccc1`
Key: upper level

Exercise: Please classify: `COc1ccc([Si](C)(C)[C@@H]2[C@@H](CCO)O[C@]3(C(=O)N(Cc4ccccc4)c4ccc(N(C=O)c5ccccc5)cc43)[C@H]2C)cc1`
Key: lower level

Exercise: Please classify: `COc1ccc([Si](C)(C)[C@H]2[C@H](CC(=O)N3CCC[C@H]3CO)O[C@@]3(C(=O)N(Cc4cccc(N5CCC5=O)c4)c4ccccc43)[C@@H]2C)cc1`
Key: middle level

Exercise: Please classify: `CC(C)N1C(=O)c2ccccc2[C@](C)(C(=O)NC2CC2)[C@@H]1c1ccc(CO)cc1`
Key: middle level

Exercise: Please classify: O=C(NCC(O)CO)[C@]1(CCS(=O)(=O)c2ccccc2)N=C(c2ccc(OCCCO)cc2)O[C@@H]1c1ccccc1 (stereo not given in full)
Key: upper level

Exercise: Please classify: `Cc1ccc(S[C@]2(C(=O)NCC(F)(F)F)CC(=O)N(C3Cc4ccccc4C3)[C@@H]2c2ccc(CO)cc2I)cc1`
Key: lower level

Exercise: Please classify: CC(c1ccccc1)C(O)C1C=CC2C(=O)N(Cc3ccccc3)C(=O)C2N1n1cnnc1 (stereo not given)
Key: lower level

Exercise: Please classify: O=C1OCCC/C=C\[C@H]2OC34C=CCN(CCN5CCOCC5)C(=O)[C@H]3N(CCO)C(=O)[C@@H]4C12 (stereo not given in full)
Key: lower level

Exercise: Please classify: `COC(=O)[C@@]1(Cc2ccc(OC)cc2)[C@H]2c3cc(C(=O)N4CCCC4)n(CCN4CCOCC4)c3C[C@H]2CN1C(=O)c1ccccc1`
Key: upper level

Exercise: Please classify: `Cc1c(NC(=O)/C(C#N)=C/C=C/c2ccccc2)c(=O)n(-c2ccccc2)n1C`
Key: middle level
